Catalogue of EC50 values
tested on: MCF-7 (human breast adenomatous tumor); experiment: SRB cytotoxicity assay, MCF7; format: cell-based; settings: MCF7, 72 h, read-out: ED50 MCF7
All answers are understood in nM, so give the number only.

molecule	testedOn	EC50 (nM)
COc1cc2c(c(OC)c1OC)-c1ccc(SC)c(=O)cc1[C@@H](NC(=O)c1cccc(CO[N+](=O)[O-])c1)CC2 [Compound 12]	MCF-7 (human breast adenomatous tumor)	0.02

Form entry - test system: MCF-7 (human breast adenomatous tumor); read-out: EC50; molecule: COc1cc2c(c(OC)c1OC)-c1ccc(OC)c(=O)cc1[C@@H](NC(=O)c1cccc(CO[N+](=O)[O-])c1)CC2 [Compound 6] 0.02
